# Assay target: PI3K-gamma (Homo sapiens)
# Sequence (P48736 whole entry, species assumed): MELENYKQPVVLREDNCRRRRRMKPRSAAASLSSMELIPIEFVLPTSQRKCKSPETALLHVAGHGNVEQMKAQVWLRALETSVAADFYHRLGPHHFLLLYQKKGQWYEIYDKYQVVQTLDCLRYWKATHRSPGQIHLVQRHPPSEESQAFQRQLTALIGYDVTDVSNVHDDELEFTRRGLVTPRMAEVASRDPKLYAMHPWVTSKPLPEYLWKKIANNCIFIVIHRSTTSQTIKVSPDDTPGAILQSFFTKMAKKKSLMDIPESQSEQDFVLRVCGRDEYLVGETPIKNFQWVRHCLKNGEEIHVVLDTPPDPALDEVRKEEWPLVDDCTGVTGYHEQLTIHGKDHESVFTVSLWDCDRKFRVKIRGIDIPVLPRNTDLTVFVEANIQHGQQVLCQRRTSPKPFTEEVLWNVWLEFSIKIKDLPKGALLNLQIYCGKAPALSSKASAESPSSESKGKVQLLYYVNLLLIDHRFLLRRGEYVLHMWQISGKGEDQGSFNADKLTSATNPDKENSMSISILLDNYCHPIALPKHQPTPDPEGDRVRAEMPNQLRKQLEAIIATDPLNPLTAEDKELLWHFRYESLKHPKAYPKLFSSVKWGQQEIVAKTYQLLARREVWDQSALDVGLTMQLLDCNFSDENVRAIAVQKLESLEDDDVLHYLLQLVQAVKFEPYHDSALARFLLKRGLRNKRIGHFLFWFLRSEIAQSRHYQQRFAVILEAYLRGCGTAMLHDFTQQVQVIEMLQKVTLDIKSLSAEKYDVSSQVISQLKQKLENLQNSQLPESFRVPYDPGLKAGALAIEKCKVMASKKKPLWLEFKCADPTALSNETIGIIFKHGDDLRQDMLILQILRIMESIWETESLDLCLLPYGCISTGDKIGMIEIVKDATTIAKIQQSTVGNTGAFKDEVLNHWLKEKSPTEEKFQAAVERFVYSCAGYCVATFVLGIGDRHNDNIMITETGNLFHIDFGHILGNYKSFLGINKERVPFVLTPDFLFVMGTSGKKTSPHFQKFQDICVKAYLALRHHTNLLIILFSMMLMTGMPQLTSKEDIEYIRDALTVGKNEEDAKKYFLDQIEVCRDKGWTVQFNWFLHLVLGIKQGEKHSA
# Run description: PI3K-gamma fluorescence polarization assay
# Format: biochemical
# Test settings: PI3Kγ Avg. IC50
Quantity name: IC50 (µM)
Please give a number only; it is taken to be in µM.

Q: Which IC50 value belongs to COc1ccc2[nH]c(-c3c(C)nn(C)c3C)c(/C=C3\Oc4ccc(NC(=O)Nc5ccc(C(=O)N6CCS(=O)(=O)CC6)cc5)cc4C3=O)c2c1 ?
Ans: 0.00175

Q: Which IC50 value belongs to Cn1cc(/C=C2\Oc3cc(O)cc(O)c3C2=O)c2c(-c3cnn(CCN4CCOCC4)c3)cccc21 ?
Ans: 7.71

Q: Which IC50 value belongs to COc1ccc2c(c1)c(C=C1Oc3cc(O)cc(O)c3C1=O)c(C)n2CCCN1CCN(CCN2CCOCC2)CC1 ?
Ans: 0.724

Q: Which IC50 value belongs to Cn1c(-c2ccccc2)c(/C=C2\Oc3cc(O)cc(O)c3C2=O)c2c([N+](=O)[O-])cccc21 ?
Ans: 3.56

Q: Which IC50 value belongs to COc1ccc2c(c1)c(/C=C1\Oc3cc(O)cc(O)c3C1=O)c(C(=O)N(C)C)n2CCN1CCC(O)CC1 ?
Ans: 0.144

Q: Which IC50 value belongs to COc1ccc2c(c1)c(/C=C1\Oc3cc(NS(C)(=O)=O)ccc3C1=O)cn2CCCN(C)C ?
Ans: 7.64

Q: Which IC50 value belongs to COc1ccc2c(c1)c(/C=C1\Oc3cc(O)ccc3C1=O)c(C1CC1)n2CCn1cccn1 ?
Ans: 0.036

Q: Which IC50 value belongs to COc1ccc2[nH]c(C)c(C=C3Oc4cccc(O)c4C3=O)c2c1 ?
Ans: 0.355

Q: Which IC50 value belongs to COc1ccc2[nH]c(C)c(C=C3Oc4cc(O)cc(O)c4C3=O)c2c1 ?
Ans: 0.025

Q: Which IC50 value belongs to COc1cc(/C=C/CN2CCN(C)CC2)c2c(c1)c(/C=C1\Oc3cc(O)ccc3C1=O)cn2C ?
Ans: 3.57

Q: Which IC50 value belongs to COc1ccc2c(c1)c(C=C1Oc3cc(O)cc(O)c3C1=O)c(C)n2CCN(C)C ?
Ans: 0.283

Q: Which IC50 value belongs to O=C1/C(=C/c2c[nH]c3ccc(Br)cc23)Oc2c1ccc(O)c2O ?
Ans: 3.53

Q: Which IC50 value belongs to Cn1cc(/C=C2\Oc3ccc(N)cc3C2=O)c2c(-c3ccccc3)cccc21 ?
Ans: 0.476

Q: Which IC50 value belongs to COc1ccc2c(c1)c(/C=C1\Oc3ccc(CO)cc3C1=O)cn2CCN1CCN(C)CC1 ?
Ans: 9.1

Q: Which IC50 value belongs to COc1ccc2c(c1)c(/C=C1\Oc3cc(O)cc(O)c3C1=O)c(C)n2CCN1CCN(C)CC1 ?
Ans: 0.268

###

Record form. Attribute: IC50. Fill in for each entry.
# Assay target: human TOR (Homo sapiens, UniProt P42345)
# Construct: FLAG
# Run description: mTOR enzyme assay (DELFIA, His6-S6K substrate)
# Type: biochemical
# Test settings: read-out: mTOR Kinase Avg. IC50
Please give a number only; it is taken to be in nM.

Q: Which IC50 value belongs to CCn1c(C)c(/C=C2\Oc3ccc(NC(=O)Nc4ccc(N(C)CCCN(C)C)cc4)cc3C2=O)c2cc(OC)ccc21 ?
Ans: 125

Q: Which IC50 value belongs to Cn1cc(/C=C2\Oc3cc(O)cc(O)c3C2=O)c2c(-c3ccc(NC(=O)N4CCOCC4)cc3)cccc21 ?
Ans: 61

Q: Which IC50 value belongs to O=C1/C(=C/c2c[nH]c3ccc(Br)cc23)Oc2c1ccc(O)c2O ?
Ans: 15000

Q: Which IC50 value belongs to COc1ccc2c(c1)c(/C=C1\Oc3cc(O)cc(O)c3C1=O)c(C)n2CCO ?
Ans: 6.85

Q: Which IC50 value belongs to N#CCCCCn1c(-c2ccccc2)c(C=C2Oc3cc(O)cc(O)c3C2=O)c2ccccc21 ?
Ans: 480

Q: Which IC50 value belongs to COc1ccc2c(c1)c(C=C1Oc3cc(O)cc(O)c3C1=O)c(C)n2CCCCN(C)C ?
Ans: 46

Q: Which IC50 value belongs to CNC(=O)Nc1ccc2c(c1)C(=O)/C(=C/c1c(-c3nc(C4CC4)no3)n(CCN3CCN(C)CC3)c3ccc(OC)cc13)O2 ?
Ans: 66

Q: Which IC50 value belongs to CN(C)Cc1ccc(-c2ccc(-c3cccc4c3c(/C=C3\Oc5cc(O)cc(O)c5C3=O)cn4C)cc2)cc1 ?
Ans: 125

Q: Which IC50 value belongs to COc1ccc2c(c1)c(/C=C1\Oc3cc(O)cc(O)c3C1=O)cn2CCO ?
Ans: 77.5

Q: Which IC50 value belongs to COc1ccc2[nH]c(-c3c(C)nn(C)c3C)c(/C=C3\Oc4ccc(NC(=O)Nc5ccc(C(=O)N(C)C)cc5)cc4C3=O)c2c1 ?
Ans: 4

Q: Which IC50 value belongs to Cn1c(-c2ccncc2)c(C=C2Oc3cc(O)cc(O)c3C2=O)c2ccccc21 ?
Ans: 120

Q: Which IC50 value belongs to COc1ccc2c(c1)c(/C=C1\Oc3cc(O)ccc3C1=O)c(C(=O)N(C)C)n2CCN1CCN(C)CC1 ?
Ans: 1650

Q: Which IC50 value belongs to Cn1c(-c2cccc(F)c2)c(C=C2Oc3cc(O)cc(O)c3C2=O)c2ccccc21 ?
Ans: 280

Q: Which IC50 value belongs to Cc1c(C=C2Oc3cc(O)cc(O)c3C2=O)c2ccccc2n1CCCl ?
Ans: 2600

Q: Which IC50 value belongs to COc1ccc2c(c1)c(/C=C1\Oc3cc(O)cc(O)c3C1=O)c(C(=O)N(C)C)n2CCN1CCC(O)CC1 ?
Ans: 88.5

Q: Which IC50 value belongs to CNC(=O)Nc1ccc2c(c1)C(=O)/C(=C/c1c(-c3nc(C(C)C)no3)n(CCN3CCN(C)CC3)c3ccc(OC)cc13)O2 ?
Ans: 225

Q: Which IC50 value belongs to Cn1cc(C=C2Oc3cc(O)cc(O)c3C2=O)c2cccc([N+](=O)[O-])c21 ?
Ans: 8300

Q: Which IC50 value belongs to COc1ccc2[nH]c(C)c(C=C3Oc4cccc(O)c4C3=O)c2c1 ?
Ans: 84.8

Q: Which IC50 value belongs to Cn1cc(/C=C2\Oc3cc(O)cc(O)c3C2=O)c2c(-c3ccncc3)cccc21 ?
Ans: 300

Q: Which IC50 value belongs to COc1ccc2c(c1)c(/C=C1\Oc3cc(O)cc(O)c3C1=O)c(C(=O)N(C)C)n2CC(=O)N(C)C ?
Ans: 84

Q: Which IC50 value belongs to CCn1c(C)c(/C=C2\Oc3ccc(NC(=O)Nc4ccc(C(=O)N5CCC(N(C)C)CC5)cc4)cc3C2=O)c2cc(OC)ccc21 ?
Ans: 31

Q: Which IC50 value belongs to Cn1cc(/C=C2\Oc3cc(O)cc(O)c3C2=O)c2c(-c3cnn(CCN4CCOCC4)c3)cccc21 ?
Ans: 123

Q: Which IC50 value belongs to COc1cccc2c1c(C=C1Oc3cc(O)cc(O)c3C1=O)cn2C ?
Ans: 300

Q: Which IC50 value belongs to COc1ccc2[nH]c(-c3c(C)nn(C)c3C)c(/C=C3\Oc4ccc(NC(=O)Nc5ccc(C(=O)N(C)CCN(C)C)cc5)cc4C3=O)c2c1 ?
Ans: 1

Q: Which IC50 value belongs to O=C1/C(=C/c2c[nH]c3cccc(-c4ccc(F)cc4)c23)Oc2cc(O)cc(O)c21 ?
Ans: 3500

###

# Assay target: human TOR (Homo sapiens, UniProt P42345)
# Construct: FLAG
# Run description: mTOR enzyme assay (DELFIA, His6-S6K substrate)
# Type: biochemical
# Test settings: read-out: mTOR Kinase Avg. IC50
pIC50: −log10 of the molar value.
Kindly note that classification relies on pIC50 with these boundaries: class 1 (below 6), class 2 (6 to below 7), class 3 (7 or more)

Q: Hello team, could you let me know which band the following molecule falls into: COc1ccc2c(c1)c(/C=C1\Oc3cc(O)cc(O)c3C1=O)c(C(F)(F)F)n2CCn1cccn1 [Example 337]
Ans: class 3

Q: Hello team, could you let me know which band the following molecule falls into: COc1ccc2c(c1)c(/C=C1\Oc3cc(O)cc(F)c3C1=O)c(C)n2CCCN(C)C [Example 465]
Ans: class 1

Q: Hello team, could you let me know which band the following molecule falls into: Cn1c(-c2ccc(F)cc2)c(C=C2Oc3cc(O)cc(O)c3C2=O)c2ccccc21 [Example 200]
Ans: class 2

Q: Hello team, could you let me know which band the following molecule falls into: O=C1C(=Cc2c[nH]c3ccc([N+](=O)[O-])cc23)Oc2cc(O)cc(O)c21 [Example 178]
Ans: class 1

Q: Hello team, could you let me know which band the following molecule falls into: COc1ccc2[nH]c(C(=O)O)c(/C=C3\Oc4cc(O)cc(O)c4C3=O)c2c1 [Example 339]
Ans: class 3

Q: Hello team, could you let me know which band the following molecule falls into: COc1ccc2c(c1)c(/C=C1\Oc3cc(O)cc(O)c3C1=O)c(C(F)(F)F)n2CCO [Example 332]
Ans: class 3

Q: Hello team, could you let me know which band the following molecule falls into: O=C1C(=Cc2c(-c3ccccc3)[nH]c3ccccc23)Oc2cc(O)ccc21 [Example 6]
Ans: class 1

Q: Hello team, could you let me know which band the following molecule falls into: COc1ccc2c(c1)c(/C=C1\Oc3cc(O)cc(O)c3C1=O)c(C)n2CCN1CCN(C)CC1 [Example 309]
Ans: class 3

Q: Hello team, could you let me know which band the following molecule falls into: Cn1c(-c2ccccn2)c(C=C2Oc3cc(O)cc(O)c3C2=O)c2ccccc21 [Example 223]
Ans: class 3

Q: Hello team, could you let me know which band the following molecule falls into: Cc1[nH]c2ccc(Cl)cc2c1C=C1Oc2cc(O)cc(O)c2C1=O [Example 215]
Ans: class 2

Q: Hello team, could you let me know which band the following molecule falls into: CNC(=O)Nc1ccc2c(c1)C(=O)/C(=C/c1c(-c3ccc(CN(C)C)cc3)[nH]c3ccc(OC)cc13)O2 [Compound 624]
Ans: class 3

Q: Hello team, could you let me know which band the following molecule falls into: O=C1C(=Cc2c(-c3ccccc3)n(Cc3ccncc3)c3ccccc23)Oc2cc(O)cc(O)c21 [Example 154]
Ans: class 2

Q: Hello team, could you let me know which band the following molecule falls into: CN1CCN(CCn2cc(/C=C3\Oc4cc(O)cc(O)c4C3=O)c3c(-c4ccc(N(C)C)cc4)cccc32)CC1 [Example 438]
Ans: class 1

Q: Hello team, could you let me know which band the following molecule falls into: CCn1c(C)c(/C=C2\Oc3ccc(NC(=O)Nc4ccc(S(=O)(=O)N(C)CCN(C)C)cc4)cc3C2=O)c2cc(OC)ccc21 [Compound 679]
Ans: class 2

Q: Hello team, could you let me know which band the following molecule falls into: CNC(=O)Nc1ccc2c(c1)C(=O)/C(=C/c1c(-c3cnn(CC(C)C)c3)[nH]c3ccc(OC)cc13)O2 [Compound 706]
Ans: class 3

Q: Hello team, could you let me know which band the following molecule falls into: COc1ccc2c(c1)c(C=C1Oc3cc(O)cc(O)c3C1=O)c(C)n2CCN1CCN(CCO)CC1 [Example 109]
Ans: class 3

Q: Hello team, could you let me know which band the following molecule falls into: COc1ccc(-c2[nH]c3ccccc3c2C=C2Oc3cc(O)cc(O)c3C2=O)cc1 [Example 208]
Ans: class 2

Q: Hello team, could you let me know which band the following molecule falls into: COc1ccc2c(c1)c(/C=C1\Oc3cc(O)cc(O)c3C1=O)c(C1CCCCC1)n2CCN1CCN(C)CC1 [Example 447]
Ans: class 3

Q: Hello team, could you let me know which band the following molecule falls into: COc1ccc2c(c1)c(/C=C1\Oc3ccc(NC(=O)Nc4ccc(NC(=O)CCN(C)C)cc4)cc3C1=O)c(C)n2CCN1CCN(C)CC1 [Compound 685]
Ans: class 3

Q: Hello team, could you let me know which band the following molecule falls into: COc1ccc2c(c1)c(/C=C1\Oc3cc(O)cc(Cl)c3C1=O)c(C)n2CCN1CCN(C)CC1 [Example 467]
Ans: class 2
